Tested on: 786-0 renal
Assay: NCI-60 one-dose screen, 48 h (100 = growth as untreated, 0 = no growth, -100 = all killed)
Conditions: 10 µM unless noted
This is part of a sample that, as a whole, favours compounds with a hit. Of some 83,000 tested, about 20% had one in any assay. Active and inactive are the calls of the source. Rule for the calls: active = growth percent below 10; inactive = the rest.
assay-readout: growth

Briefly, growth measured for `C[C@@]12CCCc3coc(c31)C(=O)c1cc3c(cc12)C(=O)C1=C(NCCS1(=O)=O)C3=O` : 6.38% (active)

Briefly, growth measured for O=C1CCCCC1CN1CCCCC1 (stereo unspecified) : 106% (inactive)

Briefly, growth measured for `CC1(C)CN=C(NN=C(/C=C/c2ccc(C(F)(F)F)cc2)/C=C/c2ccc(C(F)(F)F)cc2)NC1` : -90.2% (active)

Briefly, growth measured for `CNC(=O)Oc1ccc(Cl)cc1SSc1cc(Cl)ccc1OC(=O)NC` : 110% (inactive)

Briefly, growth measured for `N[C@@H](CCC(=O)CCl)C(=O)O` : 101% [20 µM] (inactive)

Briefly, growth measured for CN1CCC2(CC1)C(C#N)C(=O)NC(=O)C2C#N (stereo unspecified) : 104% (inactive)

Briefly, growth measured for `C[C@]12CC[C@H]3[C@@H](C[C@@H]4SC(Nc5cccc(F)c5)=N[C@@]45CC(=O)CC[C@]35C)[C@@H]1CCC2=O` : -13.9% (active)

Briefly, growth measured for `CCCCOC(N)=O` : 104% (inactive)

Briefly, growth measured for `CCN(CC)CCn1c(=O)n(C)c2ccccc21` : 111% (inactive)

Briefly, growth measured for `C/C(=C(\c1ccc(OCCN2CCOCC2)cc1)c1ccc(OC(=O)Cc2ccccc2)cc1)c1ccc(Cl)cc1` : 77.7% (inactive)

Briefly, growth measured for `NC(=O)Oc1cc(OC(N)=O)cc(N(CCCl)CCCl)c1` : 28.6% (inactive)

Briefly, growth measured for `O=C(NC(Cl)=C(Cl)Cl)P(=O)(c1ccccc1)c1ccccc1` : 101% (inactive)

Briefly, growth measured for `CC[C@H](C)[C@H](NC(=O)C12CC(NC)(C1)C2)C(=O)N(C)[C@H](C[C@@H](OC(C)=O)c1nc(C(=O)N[C@@H](Cc2ccccc2)C[C@H](C)C(=O)OC)cs1)C(C)C` : 24.7% (inactive)

Briefly, growth measured for `NC(N)=NC(N)=Nc1ccc(Cl)cc1` : 115% (inactive)

Briefly, growth measured for O=P1(N(CCCl)CCCl)NCCCO1 (stereo unspecified) : 104% (inactive)

Briefly, growth measured for CC1(C)N(Nc2ccccc2)C(=O)C2CCCN21 (stereo unspecified) : 33.4% (inactive)

Briefly, growth measured for `Cc1cc[c-]cc1.Fc1c[c-]c(-c2ccccn2)c(F)c1.[Pt+2].c1ccc([PH+](c2ccccc2)c2ccccn2)cc1` : 63.5% (inactive)

Briefly, growth measured for `Cc1cc(Br)c([N+](=O)[O-])cc1[N+](=O)[O-]` : 103% (inactive)

Briefly, growth measured for `COC[C@H]1OC(=O)c2coc3c2[C@@]1(C)C1=C(C3=O)[C@@H]2CCC(=O)[C@@]2(C)C[C@H]1OC(C)=O` : 39.3% (inactive)

Briefly, growth measured for `C#Cc1cccc(Nc2nc(Cl)nc3cc(NC(=O)CF)ccc23)c1` : 92.9% (inactive)

Briefly, growth measured for `O=[P+](O)c1cccnc1` : 98.2% (inactive)

---

System: UACC-257 melanoma
Experiment: NCI-60 one-dose screen, 48 h (100 = growth as untreated, 0 = no growth, -100 = all killed)
Conditions: 10 µM unless noted
The panel holds about 83,000 compounds, 20% with a hit somewhere; the sample as a whole holds those more often.
Kindly return 1 if reported growth is no lower than 90%; return 0 if it is lower.

q: Is reported growth greater than or equal to 90% here: `Nc1c(Cl)c(Cl)nc(C(=O)O)c1Cl`
a: 1

q: Is reported growth greater than or equal to 90% here: `C[C@@H]1C/C=C\C(=O)O[C@H](/C=C/C#C/C=C/C(C)(C)[C@@H](O)c2cccc(O)c2Br)[C@@H](C)/C=C/[C@H](C)C[C@H](OC(N)=O)C1`
a: 0

q: Is reported growth greater than or equal to 90% here: `CC[C@H](C)[C@H]1O[C@]2(C=C[C@@H]1C)C[C@@H]1C[C@@H](C/C=C(\C)[C@@H](O[C@H]3C[C@H](OC)[C@@H](O[C@H]4C[C@H](OC)[C@@H](NC)[C@H](C)O4)[C@H](C)O3)[C@@H](C)/C=C/C=C3\CO[C@@H]4[C@H](O)C(C)=C[C@@H](C(=O)O1)[C@]34O)O2`
a: 0

q: Is reported growth greater than or equal to 90% here: C[N+]12CCC34C5=CC(=O)C(=O)C=C5[N+]5(C)C(=O)CC6OCC=C(C1)C(CC32)C6C45 (configuration not stated)
a: 1

q: Is reported growth greater than or equal to 90% here: COC12CC3C4=CCOC5CC(=O)N6c7ccccc7C1(CCN2C4)C6C53 (configuration not stated)
a: 0

q: Is reported growth greater than or equal to 90% here: `O=C(NC(Cl)=C(Cl)Cl)P(=O)(c1ccccc1)c1ccccc1`
a: 1

q: Is reported growth greater than or equal to 90% here: `COc1cc2c(cc1OC)[C@@H]1C(=O)c3ccc4c(c3O[C@@H]1CO2)C[C@H](C(C)C)O4`
a: 0

q: Is reported growth greater than or equal to 90% here: COC1C(O)CC(OC2CC(Oc3cc4cc5c(c(O)c4c(O)c3C)C(=O)[C@@H](OC3CC(OC4CC(OC6CC(C)(O)C(OC(C)=O)C(C)O6)C(O)C(C)O4)C(O)C(C)O3)[C@H]([C@H](OC)C(=O)[C@@H](O)[C@@H](C)O)C5)OC(C)C2OC(C)=O)OC1C (some centres not stated)
a: 0

q: Is reported growth greater than or equal to 90% here: `COc1ccn(C)c(=O)c1C#N`
a: 0

q: Is reported growth greater than or equal to 90% here: `[N-]=[N+]=CC(=O)CCC(=O)C=[N+]=[N-]`
a: 1

q: Is reported growth greater than or equal to 90% here: `Cc1ccc(P(=O)(O)O)cc1`
a: 1

q: Is reported growth greater than or equal to 90% here: `Cn1cc(-c2csc(-c3cn(CCCCN4CCOCC4)c4ccc(F)cc34)n2)c2cccnc21`
a: 0

q: Is reported growth greater than or equal to 90% here: `O=[N+]([O-])c1ccc(OCc2ccc(S(=O)(=O)F)c(Cl)c2)c(Cl)c1`
a: 1

q: Is reported growth greater than or equal to 90% here: COCC1OC2OC3C(COC)OC(OC4C(COC)OC(OC5C(COC)OC(OC6C(COC)OC(OC7C(COC)OC(OC8C(COC)OC(OC1C(O)C2O)C(O)C8O)C(O)C7O)C(O)C6O)C(O)C5O)C(O)C4O)C(O)C3O (configuration not stated) (tested in a mixture with another compound)
a: 1

---

Test system: RXF 393 renal
Experiment: NCI-60 one-dose screen, 48 h (100 = growth as untreated, 0 = no growth, -100 = all killed)
Details: 10 µM unless noted
This is part of a sample that, as a whole, favours compounds with a hit. Of some 83,000 tested, about 20% had one in any assay.
Kindly return true (1) if reported growth is no lower than 90%; return false (0) if it is lower.

q: Is reported growth greater than or equal to 90% here: `C/C(=C\c1ccn(-c2ccc(N)c(C(F)(F)F)c2)n1)[C@@H]1C[C@@H]2O[C@]2(C)CCC[C@H](C)[C@H](O)[C@@H](C)C(=O)C(C)(C)[C@@H](O)CC(=O)O1`
a: false (0)

q: Is reported growth greater than or equal to 90% here: `S=P(SP(=S)(c1ccccc1)c1ccccc1)(c1ccccc1)c1ccccc1`
a: true (1)

q: Is reported growth greater than or equal to 90% here: `COc1ccc(O)c2c(=O)c3c(OC)cc4c(c3oc12)[C@@H]1C=CO[C@@H]1O4`
a: false (0)

q: Is reported growth greater than or equal to 90% here: `C=CC[PH+](c1ccccc1)c1ccccc1.C=CC[PH+](c1ccccc1)c1ccccc1.[Pt+2].[S-]c1nc2ccccc2[nH]1.[S-]c1nc2ccccc2[nH]1`
a: false (0)

q: Is reported growth greater than or equal to 90% here: `Nc1ccc(S(=O)(=O)F)cc1`
a: true (1)

q: Is reported growth greater than or equal to 90% here: `O=C(NC1=NCC[Se]1)c1ccccc1O`
a: false (0)

q: Is reported growth greater than or equal to 90% here: O=P1(N(CCCl)CCCl)NCCCO1 (centres undefined)
a: true (1)

q: Is reported growth greater than or equal to 90% here: `COc1cc(C=C2C(=O)NC(=O)NC2=O)ccc1O`
a: false (0)

q: Is reported growth greater than or equal to 90% here: `C#Cc1cccc(Nc2nc(Cl)nc3cc(NC(=O)CF)ccc23)c1`
a: true (1)

q: Is reported growth greater than or equal to 90% here: `C[C@]12CCc3sc(Nc4ccc(O)cc4)nc3C1=CC[C@@H]1[C@@H]2CC[C@]2(C)C(=O)CC[C@@H]12`
a: false (0)

q: Is reported growth greater than or equal to 90% here: `COc1cc(/C=C\[N+](=O)[O-])ccc1OCc1ccccc1`
a: false (0)

q: Is reported growth greater than or equal to 90% here: `Cc1ccc(P(=O)(O)O)cc1`
a: true (1)

q: Is reported growth greater than or equal to 90% here: O=S(OO)c1cc(Cl)c(O)c(Cl)c1 (centres undefined)
a: true (1)

q: Is reported growth greater than or equal to 90% here: `Cc1cc2c(cc1-c1ccnc(/C=C/C(=O)O)c1)C(C)(C)CCC2(C)C`
a: false (0)

q: Is reported growth greater than or equal to 90% here: `Nc1cccnc1`
a: true (1)

q: Is reported growth greater than or equal to 90% here: `CCC1(CCSC#N)C(=O)NC(=O)NC1=O`
a: true (1)

q: Is reported growth greater than or equal to 90% here: `O=CC1(c2ccccc2)CCN(Cc2ccccc2)CC1`
a: true (1)

q: Is reported growth greater than or equal to 90% here: `N#CCN(CC#N)[N+](=O)[O-]`
a: true (1)
